Where do these numbers come from? They come from PubChem BioAssay AID1566.

# assay.info: inhibition of NOD2-driven NF-kB reporter – cell-based, luminescence, uHTS, HEK293 (AID 1566)
# recorded.conditions: HEK293 NOD2/NF-kB luciferase reporter, at 4 µM
Among all 290,000 compounds or so, about 1,800 (0.62%) were called active. No stated cut-off is given here; in the data, active means inhibition above about 50%; inactive means the rest. This excerpt belongs to a sample that is enriched for actives.
Select the correct class. Options are active, inactive and nothing else.

1) CS(=O)(=O)N(CC(=O)Nc1cccc(Cl)c1)c1ccccc1Cl : inactive
2) O=C(Nc1ccc(N2CCCCC2)cc1)c1cccnc1Cl : inactive
3) C=CCOC(=O)C1=C(C)NC(C)=C(C(=O)OCC=C)C1/C=C/c1ccccc1 : inactive

QUERY: # outcome recorded in this test, key = `Cc1cc(Cl)ccc1OCC(=O)Nc1ccncc1`
RESULT: inactive

QUERY: # outcome recorded in this test, key = `Clc1ccc(/C=C/c2nc(Cl)c(-c3ccc(Cl)cc3)c(Cl)n2)cc1`
RESULT: inactive

QUERY: # outcome recorded in this test, key = `CCOc1ccc(N(C)c2ccc(/C=C3/SC(=S)NC3=O)cc2)cc1`
RESULT: inactive

QUERY: # outcome recorded in this test, key = `COc1ccc2cc(/C=C3\SC(=S)NC3=O)c(N3CCOCC3)nc2c1`
RESULT: inactive

QUERY: # outcome recorded in this test, key = `Cc1cc(CN(C)C(=O)c2cc(COc3ccc4ncccc4c3)on2)on1`
RESULT: inactive
